Biological target: T1, MLL3_(PHD2/3) D400K (human, UniProt Q8NEZ4 342-439, D400K)
T1 sequence: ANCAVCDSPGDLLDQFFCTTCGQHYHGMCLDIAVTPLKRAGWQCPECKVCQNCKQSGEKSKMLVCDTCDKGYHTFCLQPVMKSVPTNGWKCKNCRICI
parameter: Kd (µM)
Respond with the bare value in µM.

QUERY: Item under review: NRTGARTLADIKAKAQLVKAQ (peptide, UniProt Q76L83 650-670, looked up, also called ASXL2 (aa 650-670); MBH of ASXL2; source: synthetic peptide (SynPeptide)) [ASXL2 peptide (residues 650-670 of ASXL2)] . Reported Kd?
RESULT: 540

Where do the numbers come from? From paper PMC11161652.
